Molecular target: PD-1/PD-L1 (Homo sapiens (Human), UniProt Q9NZQ7)
Sequence (Q9NZQ7 19-238): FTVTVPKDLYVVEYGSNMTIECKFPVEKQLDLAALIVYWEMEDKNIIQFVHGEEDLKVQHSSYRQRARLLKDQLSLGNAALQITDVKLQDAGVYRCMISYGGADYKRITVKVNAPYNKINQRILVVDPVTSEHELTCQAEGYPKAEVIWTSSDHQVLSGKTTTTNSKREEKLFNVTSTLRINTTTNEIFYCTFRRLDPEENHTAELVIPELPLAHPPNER
Assay: PD-1/PD-L1 Binding Assay (Alphascreen)
Details: range symbols
# maps each entry to its IC50

Past entries and their recorded results:
# compound, IC50
rows = [
    ("COc1nc(-c2cccc(-c3cccc(-c4nc5cc(CN6CCC[C@H]6C(=O)O)c(OC(F)F)cc5o4)c3C)c2C)ccc1CN1CC(C)(C)C1 [Example 271]", "0.1 to 5 nM"),
    ("Cc1c(-c2nc3cc(CN4CCC[C@H]4C(=O)O)c(OC(F)F)cc3o2)cccc1-c1cccc(-c2cnc(CN3CCCC3)cc2F)c1C [Example 262]", "5 to 50 nM"),
    ("Cc1c(-c2nc3cc(CN(C)C[C@H]4CCCO4)c(OC(F)F)cc3o2)cccc1-c1cccc(-c2nc3cc(CN4CCC[C@H]4C(=O)O)c(OC(F)F)cc3o2)c1C [Example 30]", "0.1 to 5 nM"),
    ("CCCNCCCN(C)Cc1cc2nc(-c3cccc(-c4cccc(-c5nc6cc(CN7CCC[C@H]7C(=O)O)c(OC(F)F)cc6o5)c4C)c3C)oc2cc1OC(F)F [Example 53]", "0.1 to 5 nM"),
    ("Cc1c(-c2nc3cc(CN4CCC[C@H]4C(=O)O)c(OC(F)F)cc3o2)cccc1-c1cccc(-c2nc3cc(CN4CC(N(C)C)C4)cc(C#N)c3o2)c1C [Example 134]", "0.1 to 5 nM"),
    ("Cc1c(-c2nc3cc(CN4CC(C)(C)C4)ccc3o2)cccc1-c1cccc(-c2nc3cc(CN4CCC[C@H]4C(=O)O)c(OC(F)F)cc3o2)c1C [Example 312]", "0.1 to 5 nM"),
]

IC50 reported for this compound Cc1c(-c2nc3cc(CN4CC[C@@H](C(=O)O)C4)c(OC(F)F)cc3o2)cccc1-c1cccc(-c2nc3cc(CN4CCC(C)C4)cc(C(F)(F)F)c3o2)c1C (some centres unmarked) [Example 91] : 0.1 to 5 nM

IC50 reported for this compound Cc1c(-c2nc3cc(CN4CCC[C@H]4C(=O)O)c(OC(F)F)cc3o2)cccc1-c1cccc(-c2nc3cc(CN4CCC(C#N)C4)cc(C#N)c3o2)c1C (some centres unmarked) [Example 142] : 0.1 to 5 nM

IC50 reported for this compound Cc1c(-c2nc3cc(CN4CCCC4)cc(C(F)(F)F)c3[nH]2)cccc1-c1cccc(-c2nc3cc(CN4CCC[C@H]4C(=O)O)c(OC(F)F)cc3o2)c1C [Example 301] : 5 to 50 nM

IC50 reported for this compound Cc1c(-c2ccc([C@H](N)C(=O)O)cc2)cccc1-c1cccc(-c2nc3cc(CN4CCC[C@H]4C(=O)O)c(OC(F)F)cc3o2)c1C [Example 256] : > 50 nM

IC50 reported for this compound COc1nc(-c2cccc(-c3cccc(-c4nc5cc(CN6CCC[C@H]6C(=O)O)c(OC(F)F)cc5o4)c3C)c2C)cnc1CN1CC[C@@H](C)C1 [Example 286] : 0.1 to 5 nM

IC50 reported for this compound Cc1c(-c2nc3cc(CN4CCC[C@H]4C(=O)O)c(OC(F)F)cc3o2)cccc1-c1cccc(-c2nc3cc(CN4CCC(C(N)=O)C4)cc(C#N)c3o2)c1C (some centres unmarked) [Example 315] : 0.1 to 5 nM

IC50 reported for this compound Cc1c(-c2nc3cc(CN4CCC[C@H]4C(=O)O)c(OC(F)F)cc3o2)cccc1-c1cccc(-c2nc3cc(CN4CC(N(C)C)C4)cnc3o2)c1C [Example 116] : 0.1 to 5 nM

IC50 reported for this compound Cc1c(-c2nc3c(o2)CCN(CC(N)=O)C3)cccc1-c1cccc(-c2nc3cc(CN4CCC[C@H]4C(=O)O)c(OC(F)F)cc3o2)c1C [Example 196] : 5 to 50 nM

IC50 reported for this compound Cc1c(-c2nc3cc(CN4CC(=O)C4)c(OC(F)F)cc3o2)cccc1-c1cccc(-c2nc3cc(CN4CCC[C@H]4C(=O)O)c(OC(F)F)cc3o2)c1C [Example 46] : 5 to 50 nM

IC50 reported for this compound Cc1c(-c2cnc(N3CCCC3)nc2)cccc1-c1cccc(-c2nc3cc(CN4CCC[C@H]4C(=O)O)c(OC(F)F)cc3o2)c1C [Example 283] : 5 to 50 nM
